Each entry below carries its recorded cleaved RNA product abundance.
- Tested on: Bacillus subtilis
- RUN DESCRIPTION: cleaved RNA product abundance (RNA/gDNA barcode ratio) relative to median wild-type variant (ratio to wild type); higher = more accumulation of the downstream cleavage product
- CONDITIONS: experiment (reporter, strain, medium): exp 4a: truncated aprE reporter, strain BJT201 with 2% xylose (RNase J1 expressed); cleavage site: cggR-gapA (positions -7 to +36 mutated)
REPORTED PROPERTY: cleaved RNA product abundance

1. ACAGACGAAGGAGCCGCAAAGAAGTTATTATGGGATGAATACTCCCTCAATATAAATATCTCTCACTTATTTAAA 0.212
2. ACAGACGAAGGAGCCGCAAAGAAGTTATTAAGGGACGAATAATCCCTCAATATATATATCTCTCACTTATTTAAA 0.771
3. ACAGACGAAGGAGCCGCAAAGAAGTTATTAAAGGATTAATAATCCCTCAATATAAATATCTCTCACTTATTTAAA 0.205
4. ACAGACGAAGGAGCCGCAAAGAAGCTAATAAGGGATGAATAATCCCTCAATATAAATATCTCTCACTTATTTAAA 0.286
5. ACAGACGAAGGAGCCGCAAAGAAGTTATTAAGGGATGAATAATCCCACAATATAAATATCTCTCACTTATTTAAA 0.279
6. ACAGACGAAGGAGCCGCAAAGAAGTTATTATGGGATGAATAATCCCTCAATATACATATCTCTCACTTATTTAAA 0.538
7. ACAGACGAAGGAGCCGCAAAGAAGTTCTTAAGTGATGAATAATCCCTCAATATAAATATCTCTCACTTATTTAAA 0.0965
8. ACAGACGAAGGAGCCGCAAAGAAGTTAATAAGGGATGAATAATCCCTCAATATAAATGTCTCTCACTTATTTAAA 0.303

====

- Test system: Bacillus subtilis
- RUN DESCRIPTION: cleaved RNA product abundance (RNA/gDNA barcode ratio) relative to median wild-type variant (ratio to wild type); higher = more accumulation of the downstream cleavage product
- CONDITIONS: experiment (reporter, strain, medium): exp 4a: truncated aprE reporter, strain BJT201 with 2% xylose (RNase J1 expressed); cleavage site: cggR-gapA (positions -7 to +36 mutated)
# binarize cleaved RNA product abundance: threshold 0.4 inclusive, high side criterion met, low side criterion not met

1) ACAGACGAAGGAGCCGCAAAGAAGTTATTAAGGGATGAATAACCCCTTAATATAAATATCTCTCACTTATTTAAA criterion met
2) ACAGACGAAGGAGCCGCAAATAAGTTATTAAGGGACGAATAATCCCTCAATATAAATATCTCTCACTTATTTAAA criterion met
3) ACAGACGAAGGAGCCGCAATGAAGTTATTAAGCGATGAATAATCCCTCAATATAAATATCTCTCACTTATTTAAA criterion not met
4) ACAGACGAAGGAGCCGCAAAGAAGTTATTAAGGGACGAATAACCCCTCAATATAAATATCTCTCACTTATTTAAA criterion not met
5) ACAGACGAAGGAGCCGCAAAGAAGTTAATAAGGGATGAATAATTCCTCAATATAAATATCTCTCACTTATTTAAA criterion not met
6) ACAGACGAAGGAGCCGCAAAGAAGTTATTAAGTGGTGAATAATCCCTCAATATAAATATCTCTCACTTATTTAAA criterion not met
7) ACAGACGAAGGAGCCGCAAAGAAGTTATTAAGGGATGAATAATCCTTCATTATAAATATCTCTCACTTATTTAAA criterion not met
8) ACAGACGAAGGAGCCGCAAAGAAGTTATTAAGGGATGACTAATCCCACAATATAAATATCTCTCACTTATTTAAA criterion not met
9) ACAGACGAAGGAGCCGCAAAGAATTTATTAAGGGATGAATAATCTCTCAATATAAATATCTCTCACTTATTTAAA criterion met
10) ACAGACGAAGGAGCCGCAAAGAAGTTATTAAGGCATGAATAATCCCTCAATAAAAATATCTCTCACTTATTTAAA criterion not met
11) ACAGACGAAGGAGCCGCAAAGAAGTTATTAAGGGTTGAATAATCCCTCCATATAAATATCTCTCACTTATTTAAA criterion not met
12) ACAGACGAAGGAGCCGCAAAGAAGTTACTAAGGGATGAATAATTCCTCAATATAAATATCTCTCACTTATTTAAA criterion not met
13) ACAGACGAAGGAGCCGCAAAGAAACTATTAAGGGATGAATAATCCCTCAATATAAATATCTCTCACTTATTTAAA criterion met
14) ACAGACGAAGGAGCCGCAAAGAAGTTATTAAGGGATGAAGAATCCCTCAATATAAATATCTCTCACTTATTTAAA criterion met

====

- Tested on: Bacillus subtilis
- RUN DESCRIPTION: cleaved RNA product abundance (RNA/gDNA barcode ratio) relative to median wild-type variant (ratio to wild type); higher = more accumulation of the downstream cleavage product
- CONDITIONS: experiment (reporter, strain, medium): exp 2b: truncated aprE reporter, strain BJT200; cleavage site: cggR-gapA (positions -7 to +36 mutated)
REPORTED PROPERTY: cleaved RNA product abundance

1) ACAGACGAAGGAGCCGCAAAGAAGTTATTAAGGGATGAATAATCCTTCAATAAAAATATCTCTCACTTATTTAAA 0.185
2) ACAGACGAAGGAGCCGCTAACAAGTTATTAAAGGATGAATAATCCCTCAATATAAATATCTCTCACTTATTTAAA 0.111
3) ACAGACGAAGGAGCCGCAAAGAAGTTATTAAGGTATGAATAATCCCACAATATAAATATCTCTCACTTATTTAAA 0.0792
4) ACAGACGAAGGAGCCGCAAAGAAGTTATTAAGGGATGAATAAACCATCAATATAAATATCTCTCACTTATTTAAA 0.125

====

Each entry below carries its recorded cleaved RNA product abundance.
- System: Bacillus subtilis
- RUN DESCRIPTION: cleaved RNA product abundance (RNA/gDNA barcode ratio) relative to median wild-type variant (ratio to wild type); higher = more accumulation of the downstream cleavage product
- CONDITIONS: experiment (reporter, strain, medium): exp 2b: truncated aprE reporter, strain BJT200; cleavage site: cggR-gapA (positions -7 to +36 mutated)
REPORTED PROPERTY: cleaved RNA product abundance

1. ACAGACGAAGGAGCCGCAAAGAAGTTATTAAGGCATGAATAATCCCTCCATATAAATATCTCTCACTTATTTAAA 0.0936
2. ACAGACGAAGGAGCCGCAAAGAAGTTATTAAGGGATGCATAATCCCTCAATTTAAATATCTCTCACTTATTTAAA 0.177
3. ACAGACGAAGGAGCCGCAAAGAAGTTATTAAGGGATGAATAATCCCTTAATATAAACATCTCTCACTTATTTAAA 0.304
4. ACAGACGAAGGAGCCGCAAAGAAGTTATTAAGGGATAATTAATCCCTCAATATAAATATCTCTCACTTATTTAAA 1.13
5. ACAGACGAAGGAGCCGCAAAGAAGTTATTATGGTATGAATAATCCCTCAATATAAATATCTCTCACTTATTTAAA 0.0925
6. ACAGACGAAGGAGCCGCAAAGAAGTAATTAAGAGATGAATAATCCCTCAATATAAATATCTCTCACTTATTTAAA 0.0957
7. ACAGACGAAGGAGCCGCAAAGAAGTTATTAAGGGATGAATAATCCCAAAATATAAATATCTCTCACTTATTTAAA 0.306

====

- Tested on: Bacillus subtilis
- RUN DESCRIPTION: cleaved RNA product abundance (RNA/gDNA barcode ratio) relative to median wild-type variant (ratio to wild type); higher = more accumulation of the downstream cleavage product
- CONDITIONS: experiment (reporter, strain, medium): exp 2b: truncated aprE reporter, strain BJT200; cleavage site: cggR-gapA (positions -7 to +36 mutated)
Each entry below carries its recorded cleaved RNA product abundance.
REPORTED PROPERTY: cleaved RNA product abundance

1) ACAGACGAAGGAGCCGCAAAGAAGCTATTAAAGGATGAATAATCCCTCAATATAAATATCTCTCACTTATTTAAA 0.111
2) ACAGACGAAGGAGCCGCAAAGAAGTTATTAATGGACGAATAATCCCTCAATATAAATATCTCTCACTTATTTAAA 0.0737
3) ACAGACGAAGGAGCCGCAAAGAAGTTATTAAGAGACGAATAATCCCTCAATATAAATATCTCTCACTTATTTAAA 0.0781
4) ACAGACGAAGGAGCCGCGAAGAAGTTATTAAGGGATGAATAATCCCTCAATATAAATAACTCTCACTTATTTAAA 1.05
5) ACAGACGAAGGAGCCGCAAAGAAGTTATTAAGGGATGAATAATTGCTCAATATAAATATCTCTCACTTATTTAAA 0.0946

The measured values listed here are drawn from the supplement of paper PMC11780869.
